# Tested on: PSMA + PC-3 PiP and PSMA − PC-3 flu tumor xenografts
# condition_info: 2 H post-injection
metric_name: Biodistribution: bladder (% ID/g)

compound: O=C(O)CC[C@H](NC(=O)NC(CCCCNC(=O)c1ccc([211At])cc1)C(=O)O)C(=O)O (stereo partly shown) [[^211At]YC-I-27]
metric_name: Biodistribution: bladder
units: % ID/g
numeric_result: 4.55
//
compound: O=C(O)CC[C@H](NC(=O)N[C@@H](CCC(=O)NCCc1ccc([211At])cc1)C(=O)O)C(=O)O [[^211At]HS-549]
metric_name: Biodistribution: bladder
units: % ID/g
numeric_result: 5.04
//
compound: O=C(O)CC[C@H](NC(=O)N[C@@H](CCC(=O)NCCc1ccc([131I])cc1)C(=O)O)C(=O)O [[^131I]HS-549]
metric_name: Biodistribution: bladder
units: % ID/g
numeric_result: 2.34
//
compound: N=C(N)NCc1ccc(C(=O)NCCCCC(NC(=O)CCCCCCC(=O)NCCCC[C@H](NC(=O)N[C@@H](CCC(=O)O)C(=O)O)C(=O)O)C(=O)O)cc1[131I] (stereo partly shown) [[^131I] labeled PSMA-904]
metric_name: Biodistribution: bladder
units: % ID/g
numeric_result: 0.64
//
compound: O=C(O)CC[C@H](NC(=O)N[C@@H](CCCCNC(=O)c1ccc([131I])cc1)C(=O)O)C(=O)O [[^131I]YC-I-27]
metric_name: Biodistribution: bladder
units: % ID/g
numeric_result: 2.96
//
compound: N=C(N)NCc1ccc(C(=O)NCCCC[C@H](NC(=O)N[C@@H](CCC(=O)O)C(=O)O)C(=O)O)cc1[131I] [[^131I] labeled 7 (PSMA-620)]
metric_name: Biodistribution: bladder
units: % ID/g
numeric_result: 1.65
//
compound: N=C(N)NCc1ccc(C(=O)NCCCCC(NC(=O)CCCCCCC(=O)NCCCC[C@H](NC(=O)N[C@@H](CCC(=O)O)C(=O)O)C(=O)O)C(=O)O)cc1[211At] (stereo partly shown) [[^211At] labeled PSMA-904]
metric_name: Biodistribution: bladder
units: % ID/g
numeric_result: 1.30
